These entries and their values trace back to the supplement of paper PMC9170038.

Test system: MS2 coat protein
Assay: apparent KD of MS2 coat protein; designed switch direction (-1 OFF switch, 1 ON switch): -1; higher = weaker reporter binding
Details: input ligand: FMN 200 uM
Binary call on apparent KD of MS2 coat protein: class 1 from 80 nM upward, class 0 beneath that.

CONSTRUCT_SEQUENCE: CUUGAGCAGGUAGGAUAUACGAAGUGUCGGCGAGUAGAAGGACCUGCGAUCCACUUGAGGAUCACCCAAGUUCGCAGGAGAACA [Mutated MS2 EX1.1] (Eterna round: R96, puzzle: Exclusion NG 1)
ASSAYED_SYSTEM: MS2 coat protein
CLASS_NAME: class 1
//
CONSTRUCT_SEQUENCE: GGACAUAAAGUCAGGAUAUUAAGGCGAACAAGCGAUGAGAAGGGACAUGAGGAUCACCCAUGUGAUUCUCAUCA [Isedzaor] (Eterna round: R97, puzzle: Brourd's mod of Exclusion 4)
ASSAYED_SYSTEM: MS2 coat protein
CLASS_NAME: class 0
//
CONSTRUCT_SEQUENCE: ACGCCACAUGAGGAUCACCCAUGUGAGGAUAUGGCCUGUUUGGCGUGUGCUGGCUCUGUCAGAAGGCGCGUGGG [salish99_ex1_r4_039] (Eterna round: R97, puzzle: Exclusion 1)
ASSAYED_SYSTEM: MS2 coat protein
CLASS_NAME: class 0

Determine whether measured apparent KD of MS2 coat protein meets or exceeds 80 nM for UUUAAGGUAAUUAAGAUCACAUGAGGAUCACCCAUGUAUAUAUAGGAUAUCAGCUCGUUUAGAGCUGAGAAGGAUAUAUACAUA [ExNG3/6-C2] (Eterna round: R96, puzzle: Exclusion NG 3) class 0

Kindly determine if apparent KD of MS2 coat protein recorded for AGCUAGUGCCGAGGAUAUACAUGAGGAUCACCCAUGUAGGCCAGUCGGUUUCUGACUGGCGAGAUGUAGAAGGCGGCGUUGGCA [JL ENG2 1.51] (Eterna round: R96, puzzle: Exclusion NG 2) is above or exactly 80 nM. class 0

###

Test system: MS2 coat protein
Test: apparent KD of MS2 coat protein; designed switch direction (-1 OFF switch, 1 ON switch): 1; higher = weaker reporter binding
Details: Eterna round: R95; input ligand: none
MEASURED_PARAMETER: apparent KD of MS2 coat protein (µM)
One number for each entry, in µM.

CONSTRUCT_SEQUENCE: AUUUAACAAGCUUUUUGCUCGUCUUAUAAACAUGAGGAUCACCCAUGUAAUAGCGUGAGAGUAAAUUUAUAAAUAAU [JMF 88] (puzzle: Sensor for hsa-mir-208a)
ASSAYED_SYSTEM: MS2 coat protein
MEASURED_PARAMETER: apparent KD of MS2 coat protein
UNIT: µM
READOUT_NUMBER: 0.0147
--
CONSTRUCT_SEQUENCE: GGUCCAGCCUGAGCUGGACAAAAGCAUGUACAUGAGGAUCACCCAUGUUCAUGUACAAGCUUUUUGCUCGUCUUAUC [salish99_208a_r3_056] (puzzle: Sensor for hsa-mir-208a)
ASSAYED_SYSTEM: MS2 coat protein
MEASURED_PARAMETER: apparent KD of MS2 coat protein
UNIT: µM
READOUT_NUMBER: 0.664

Name the recorded apparent KD of MS2 coat protein of the sequence listed here: GGUCCAGCCUGAGCUGGACCGAAGCAUGUACAUGAGGAUCACCCAUGUCAUGUACAGGCUUUUUGCUCGUCUUAUUG [JL-shm-2.12 JL Mod] (puzzle: Sensor for hsa-mir-208a) 0.694

###

Would you mind telling me the reported apparent KD of MS2 coat protein of each entry?
Test system: MS2 coat protein
Assay: apparent KD of MS2 coat protein; designed switch direction (-1 OFF switch, 1 ON switch): -1; higher = weaker reporter binding
Settings: Eterna round: R95; input ligand: microRNA oligo, concentration not stated
Answer format: number, then unit.

The cases that follow already have their apparent KD of MS2 coat protein on record.
CONSTRUCT_SEQUENCE: UUUUAACAUGAGGAUCACCCAUGUGAGGAUAUCGAAAUUUAUAUUAAUAUUUAUAUUUCGAGAAGGCACAUUUU [JMF 57] (puzzle: Exclusion 1)
apparent KD of MS2 coat protein: 153 nM
//
CONSTRUCT_SEQUENCE: GGAUCGAGUGUGAGGAUAUACCACUGGAUACAGUGGUAGAAGGCACAUGAGGAUCACCCAUGUCUCUACGAUCC [Fiskers BMX 4 - 44] (puzzle: Brourd's mod of Exclusion 4)
apparent KD of MS2 coat protein: 16.3 nM
//
CONSTRUCT_SEQUENCE: UUGGAGAUAGGAUAUACGAGGAGAGUAGAGGGAAGGUGAGGACAUGAGGAUCACCCAUGUAGAAGGAUCAGGAG [JR_Exclu2_Sub067] (puzzle: Exclusion 2)
apparent KD of MS2 coat protein: 34.8 nM
//
CONSTRUCT_SEQUENCE: GAUAGAGAGCAGGAUAUCUUGGAUAAGUAUUGUAGAGAAGGGCUCACAUGAGGAUCACCCAUGUGGUCCUAGAU [JL Dibiri mod 10] (puzzle: Exclusion 6)
apparent KD of MS2 coat protein: 14.8 nM
//
CONSTRUCT_SEQUENCE: AGUAACCGUCACGAAAGUGAUGGUUACACAAGCAAAUGUACAUGAGGAUCACCCAUGUCCUCAUUUGUUCGUCUUAU [Sensor 3 - 47] (puzzle: Sensor v3, turn-off variant 2)
apparent KD of MS2 coat protein: 390 nM

Output apparent KD of MS2 coat protein of AAUUAACAAGCGAGAUCCUACAUGAGGAUCACCCAUGUGCUCGUCUUAUAAAGUACUAUCACGAAAGUGAUAGUACA [Mat - Sensor v3 - turn-off var 1 - Eli Mod - D64] (puzzle: Sensor v3, turn-off variant 1) 215 nM

###

System: MS2 coat protein
Assay: apparent KD of MS2 coat protein; designed switch direction (-1 OFF switch, 1 ON switch): -1; higher = weaker reporter binding
Settings: input ligand: none
Param threshold (20 nM) applies to apparent KD of MS2 coat protein; output criterion met when value >= threshold, criterion not met when value < threshold.

Solved entries:
CONSTRUCT_SEQUENCE: UUAUUAUAUGUAGGAUAUGCGUAUUGUUGUUAUGCAGAAGGACAUGAGGAUCACCCAUGUAUAUUAUUGUUAUAUAUUAUAUAU [Title] (Eterna round: R96, puzzle: Exclusion NG 1)
CLASS_NAME: criterion met
--
CONSTRUCT_SEQUENCE: GUAGUGACUCGAGGAUAUCCCGACUCCUGGUCAGGAGAAGGCGACGUCAUAGCACAUGAGGAUCACCCAUGUCUUACACAUACG [Eternabot solution 32] (Eterna round: R96, puzzle: Exclusion NG 1)
CLASS_NAME: criterion met
--
CONSTRUCT_SEQUENCE: CGCAUGUCAGGAUAUCGUGCAUACAACGAAAGUUCUAUGUGCGAGAAGGGACAUGAGGAUCACCCAUGUUAGCG [Omei Ex4 A9] (Eterna round: R97, puzzle: Exclusion 4)
CLASS_NAME: criterion met
--
CONSTRUCT_SEQUENCE: UCCUCACAUGAGGAUCACCCAUGUGAGGAUAUGGGCCCGGGCCCGAAAGGGCCCGGGCCCAGAAGGCACUGGGU [MoB_2] (Eterna round: R97, puzzle: Exclusion 1)
CLASS_NAME: criterion met
--
CONSTRUCT_SEQUENCE: ACUCGACAUGAGGAUCACCCAUGUGAGGAUAUGGCCUGUAUGGCGUGAGCUGAAUCAAUCAGAAGGCGCGUGGG [salish99_ex1_r4_053] (Eterna round: R97, puzzle: Exclusion 1)
CLASS_NAME: criterion met
--
CONSTRUCT_SEQUENCE: CGAUCGGUAGGAUAUACAUGAACCUUGGUUGUGAGGCCUAAACAUGAGGAUCACCCAUGUAGAAGGACCUCGUA [EX2 C.10] (Eterna round: R97, puzzle: Exclusion 2)
CLASS_NAME: criterion not met

Is reported apparent KD of MS2 coat protein greater than or equal to 20 nM here: AGCUGUGGCCGAGGAUAUCCACAUGAGGAUCACCCAUGUCGAUACCAGCGUAAGCUGGAUAUAAGGGAGAAGGCGGUCUCAGCA [Eli eng2 - 053] (Eterna round: R96, puzzle: Exclusion NG 2) criterion not met

Does UCGUUCCGUGUAGGAUAUUGGUCUCCCUCGGGCCGAGAAGGACAUGAGGAUCACCCAUGUAUGUUAUUAUCGCGCGUGGCGCAU [Design 90] (Eterna round: R96, puzzle: Exclusion NG 1) have a reported apparent KD of MS2 coat protein of at least 20 nM? criterion met

###

Tested on: K4 kissing-loop RNA reporter;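 further: bound reporter read as fluorescence of individual clusters on recovered sequencing chips by microscopy, with normalized cluster intensities fitted with a binding model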
Experiment: apparent KD of K4 kissing-loop reporter; higher = weaker reporter binding
Details: Eterna round: R107; input ligand: tryptophan 2.4 mM
MEASURED_PARAMETER: apparent KD of K4 kissing-loop reporter (nM)
Give bare numbers, in nM.

CONSTRUCT_SEQUENCE: AGUGUACAGUCGGCCGCCACUCACUCCUCCUGCGUUAACGAGUGAUGUUUGUUUUUUAGUGGUACGAGGACCGGGACUUCUCUGA [theeternabot_sameState_KL_Trp_B_35]
apparent KD of K4 kissing-loop reporter, nM: 260

CONSTRUCT_SEQUENCE: CAUCACGCAAUCACGGAUGCAAGCAUUGAUACCAGAACCGAUUAUUUCCCUUGGCAGCAACACGGAGUGAUGUUCCUAGCAUAUA [theeternabot_sameState_KL_Theo_A_21]
apparent KD of K4 kissing-loop reporter, nM: 75.5

CONSTRUCT_SEQUENCE: AACGACUGGAUGAAUAACAUCUAGUCGAUUCGAGGACCGGUACGGCCGCCACUCGAGCUAACUGCGAGUGAUGUUCGAUAAUAAA [#OpenEnded 3]
apparent KD of K4 kissing-loop reporter, nM: 96.6

Quick request: apparent KD of K4 kissing-loop reporter for each listed item, please.
1. GUCCCAGUGAUGUUGGUAGGCGGGCGGGAUACCAGCGAAGACUCACGCCCUUGGCAGCCCACAUAUCCCGCGUAGGGAUUAGCCC [Same State - Theophylline A (Freestyle 22)]
2. UACUAUAGUGAUGUUAUAGAUAAAACAGAUACCAGUGUAACAUAACACCCUUGGCAGCUGAUAAGGGAAAGUAUAAAUGUGUAUU [AstrosSSTHe-A#2newdesignED]
3. AAAGCAUUGAGAAGGAGCGUGUCGUGGAGUGAUGUUCCAUUGUAGACCUAAGGUCUACAAGCACAGGUAGGUCGCUCAUUGCUAA [JR_Nu_SSArginiB_Sub023]
4. AACAAGGGAUGUCAGUGAUGUUGUACGUCGCGAGGACCGGUACGGCCGCCACUCGUAAUACACAGAUGAGGGUUCUUUCUCUGAU [theeternabot_sameState_KL_Trp_A_49]

[457, 186, 156, 228]
